Test system: monkey hepatocytes
Assay: In vitro metabolism of Compound 2 in monkey cryopreserved hepatocytes
Assay type: in vitro ADME, cynomolgus monkey
Set-up: key: ND Not detected.; trace: Trace: observed by HPLC/MS measurements only.; + Minor as assessed by HPLC/UV measurements; ++ moderate as assessed by HPLC/UV measurements; +++ major as assessed by HPLC/UV measurements.; * m/z 593 and m/z 505 co-eluted in rabbit hepatocytes.; ** m/z 591 c and m/z 593 were merged in human hepatocytes and Hepatopack.; *** m/z 607 and m/z 751 b were merged in rabbit hepatocytes
Conditions: monkey cryopreserved hepatocytes; HPLC/UV/MS
Text: Male CD-1 mouse hepatocytes (lot YHL), male Wistar-Han rat hepatocytes (Celsius; product number: M000065; lot: SLA), female New Zealand rabbit hepatocytes (lot 1510147), male cryopreserved cynomolgus monkey hepatocytes (Celsius; product number: M00305; lot: DNB) and mixed-gender cryopreserved human hepatocytes (Bioreclamation; product number: S01988; lot: DCM) were obtained for the hepatocyte in-vitro assessments. […] UV absorbance was monitored with a photo-diode array detector from 220-450 nm. […]
measurement type: Relative abundance of metabolite of Compound 2, Monkey

{"compound": "C[C@]1(c2ccc(Cl)cn2)Oc2cccc(-c3cc[n+](Cc4nc5ccc(C(=O)O)cc5n4C[C@@H]4CCO4)cc3)c2O1 [Metabolite 569]", "value measured": "trace"}
{"compound": "O=C(O)c1ccc2nc(CN3CCC(c4cccc(O)c4O)CC3)n(C[C@@H]3CCO3)c2c1 [Metabolite 438]", "value measured": "trace"}
{"compound": "C[C@]1(c2ccc(Cl)cn2)Oc2cccc(C3CCN(Cc4nc5ccc(C(=O)O)cc5n4CC(O)CCO)CC3)c2O1 (stereo in doubt) [Metabolite 593]", "value measured": "+"}
{"compound": "C[C@]1(c2ccc(Cl)cn2)Oc2cccc(C3CCNCC3)c2O1 [Metabolite 331]", "value measured": "+"}
